# Measured target: ATP-dependent translocase ABCB1 (Homo sapiens, UniProt P08183)
# Sequence (P08183 whole entry): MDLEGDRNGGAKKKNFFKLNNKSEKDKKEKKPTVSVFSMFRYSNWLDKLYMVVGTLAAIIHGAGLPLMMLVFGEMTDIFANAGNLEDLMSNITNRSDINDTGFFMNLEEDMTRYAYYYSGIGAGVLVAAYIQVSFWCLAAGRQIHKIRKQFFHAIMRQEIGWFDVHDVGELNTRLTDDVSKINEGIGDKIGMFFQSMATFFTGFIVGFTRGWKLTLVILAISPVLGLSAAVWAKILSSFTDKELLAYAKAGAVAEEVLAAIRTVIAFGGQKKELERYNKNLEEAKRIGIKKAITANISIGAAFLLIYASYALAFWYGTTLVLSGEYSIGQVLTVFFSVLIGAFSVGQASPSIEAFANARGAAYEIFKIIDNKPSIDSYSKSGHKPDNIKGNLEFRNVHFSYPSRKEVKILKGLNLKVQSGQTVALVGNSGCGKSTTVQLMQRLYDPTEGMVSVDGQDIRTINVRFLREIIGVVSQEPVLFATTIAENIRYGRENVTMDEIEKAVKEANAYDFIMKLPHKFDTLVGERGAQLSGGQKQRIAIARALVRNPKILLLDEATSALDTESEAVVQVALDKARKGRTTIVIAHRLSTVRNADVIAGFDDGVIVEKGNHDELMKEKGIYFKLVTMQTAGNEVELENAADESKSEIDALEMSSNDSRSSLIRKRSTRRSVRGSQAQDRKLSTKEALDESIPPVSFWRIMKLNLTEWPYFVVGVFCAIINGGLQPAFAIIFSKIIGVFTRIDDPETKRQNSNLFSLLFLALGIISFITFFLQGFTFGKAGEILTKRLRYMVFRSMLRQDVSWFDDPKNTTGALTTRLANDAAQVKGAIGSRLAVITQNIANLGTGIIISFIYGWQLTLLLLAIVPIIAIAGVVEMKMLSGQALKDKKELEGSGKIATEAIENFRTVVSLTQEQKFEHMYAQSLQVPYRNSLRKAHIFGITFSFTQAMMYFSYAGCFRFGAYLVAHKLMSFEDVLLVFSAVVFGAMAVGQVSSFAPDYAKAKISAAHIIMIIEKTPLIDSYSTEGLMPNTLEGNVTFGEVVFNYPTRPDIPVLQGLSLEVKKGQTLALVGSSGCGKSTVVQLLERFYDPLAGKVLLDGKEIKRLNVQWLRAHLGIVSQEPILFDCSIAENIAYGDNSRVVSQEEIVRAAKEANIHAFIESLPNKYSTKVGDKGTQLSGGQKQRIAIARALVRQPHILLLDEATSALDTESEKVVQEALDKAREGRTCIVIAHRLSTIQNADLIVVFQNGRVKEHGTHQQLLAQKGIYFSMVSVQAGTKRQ
# Assay method text: Reversal of P-gp-mediated multidrug resistance in human KBV cells assessed as potentiation of paclitaxel-induced cytotoxicity by measuring cell survival at 10 uM after 72 hrs by MTT assay (reference value: 104 +/- 8%)
# Assay type: cell-based
Label Y when Survival is strictly below 80%; otherwise label N.

- CCCCCCCC(=O)N[C@H]1CC[C@]2(C)[C@H]3C[C@@H](O)[C@@H]4[C@@H]([C@]5(C)CC[C@H](C(C)(C)O)O5)CC[C@@]4(C)[C@]3(C)CC[C@H]2C1(C)C: Y
- CC(C)(O)[C@H]1CC[C@@](C)([C@H]2CC[C@]3(C)[C@@H]2[C@H](O)C[C@@H]2[C@@]4(C)CC[C@H](NC(=O)CCCN)C(C)(C)[C@@H]4CC[C@]23C)O1: N
- CC(C)(O)[C@@H]1CC[C@@](C)([C@H]2CC[C@]3(C)[C@@H]2[C@H](O)C[C@@H]2[C@@]4(C)CC[C@H](NC(=O)CN)C(C)(C)[C@@H]4CC[C@]23C)O1: N
- CC(C)(O)[C@@H]1CC[C@@](C)([C@H]2CC[C@]3(C)[C@@H]2[C@H](O)C[C@@H]2[C@@]4(C)CC[C@H](NC(=O)CCCN)C(C)(C)[C@@H]4CC[C@]23C)O1: N

INPUT: Please indicate whether the reported Survival of `CC(C)(O)[C@H]1CC[C@@](C)([C@H]2CC[C@]3(C)[C@@H]2[C@H](O)C[C@@H]2[C@@]4(C)CC[C@H](NC(=O)CN)C(C)(C)[C@@H]4CC[C@]23C)O1` is strictly below 80%.
OUTPUT: Y
